For each of the molecules below, state its TGI.
system: RPMI-8226 leukemia; test: NCI tumour cell line growth inhibition, 48 h
Unit µM implied. Number only.

Query string: Recall the recorded TGI for CC(C)(CCC(C)(C)N1OC1c1ccccc1)N1OC1c1ccccc1 (stereo not drawn) with RPMI-8226 leukemia and state it.
Result string: 71.4

Query string: Then this molecule: CCN(CC)C1Oc2cc3c(cc2C(c2cccc(OC)c2OC)C1C)OCO3 (stereo not drawn)
Result string: 16.4

Query string: Then this molecule: CCCCCCCCCCCC[N+](CCCCCCCCCCCC)=C1SCCS1
Result string: 4.4

Query string: Then this molecule: CC1c2ccccc2CCN1c1ccc(CO)c(Cl)c1 (stereo not drawn)
Result string: 47.5

Query string: Then this molecule: CC(C)/C(Cl)=N/OC(=O)Nc1ccc(Cl)c(Cl)c1
Result string: 6.92

Query string: Then this molecule: COc1ccc2c(c1)C(=O)c1c-2c(OCCN(C)C)nc2ccccc12
Result string: 13.9

Query string: Then this molecule: CC1C=CC(OC(=O)C(C)(O)CCC(O)(C(=O)OC2CC(O)C(C(C)C)CC2(C)O)C(C)C)(C(C)C)CC1 (stereo not drawn)
Result string: 0.711

Query string: Then this molecule: COc1ccc(/C=C(\C)[N+](=O)[O-])cc1OC
Result string: 5.59

Query string: Then this molecule: COc1cc(C(=O)Nc2cc(O)c(CC=C(C)C)c(O)c2)cc2c1O[C@]1(C)CC[C@@H](O)C(C)(C)[C@H]1C2
Result string: 0.816

Query string: Then this molecule: C[CH2][Hg][S]c1ccccc1C(=O)O
Result string: 4.24
